System: Klebsiella pneumoniae KY4275 ATCC10031
Test: MIC, agar dilution method, pH 8.0
Assay type: cell-based
Conditions: ATCC10031; pH 8.0; Klebsiella pneumoniae KY4275; read-out: Minimum inhibition concentration (MIC), KP
Listed here are compounds together with their documented MIC.
property: MIC (µg/mL)

compound=CNC[C@H](O)CN(C)[C@H]1[C@@H](O)[C@H](O[C@H]2O[C@H]([C@H](C)N)CC[C@H]2N)[C@@H](N)[C@H](O)[C@@H]1OC unitslabel=µg/mL censoringsign== experimentalvalue=5
compound=CO[C@H]1[C@@H](O)[C@H](N)[C@@H](O[C@H]2O[C@H]([C@H](C)N)CC[C@H]2N)[C@H](O)[C@@H]1N(C)C[C@@H](O)CCN unitslabel=µg/mL censoringsign== experimentalvalue=0.32
compound=CO[C@H]1[C@@H](O)[C@H](N)[C@@H](O[C@H]2O[C@H]([C@H](C)N)CC[C@H]2N)[C@H](O)[C@@H]1N(C)CCN unitslabel=µg/mL censoringsign== experimentalvalue=0.63
compound="CO[C@H]1[C@@H](O)[C@H](N)[C@@H](O[C@H]2O[C@H]([C@H](C)N)CC[C@H]2N)[C@H](O)[C@@H]1N(C)CC(O)CCN (stereo partly shown)" unitslabel=µg/mL censoringsign== experimentalvalue=0.63
compound=CCCC(=O)N(C)[C@H]1[C@@H](O)[C@H](O[C@H]2O[C@H]([C@H](C)N)CC[C@H]2N)[C@@H](N)[C@H](O)[C@@H]1OC unitslabel=µg/mL censoringsign== experimentalvalue=25
compound=CO[C@H]1[C@@H](O)[C@H](N)[C@@H](O[C@H]2O[C@H]([C@H](C)N)CC[C@H]2N)[C@H](O)[C@@H]1N(C)C(=O)CCN unitslabel=µg/mL censoringsign== experimentalvalue=0.32
compound=CCN(C)[C@H]1[C@@H](O)[C@H](O[C@H]2O[C@H]([C@H](C)N)CC[C@H]2N)[C@@H](N)[C@H](O)[C@@H]1OC unitslabel=µg/mL censoringsign== experimentalvalue=50
compound=CO[C@H]1[C@@H](O)[C@H](N)[C@@H](O[C@H]2O[C@H]([C@H](C)N)CC[C@H]2N)[C@H](O)[C@@H]1N(C)CCCCCN unitslabel=µg/mL censoringsign== experimentalvalue=20
compound=CN[C@H]1[C@@H](O)[C@H](O[C@H]2O[C@H]([C@H](C)N)CC[C@H]2N)[C@@H](N)[C@H](O)[C@@H]1OC unitslabel=µg/mL censoringsign== experimentalvalue=50
compound=CO[C@H]1[C@@H](O)[C@H](N)[C@@H](O[C@H]2O[C@H]([C@H](C)N)CC[C@H]2N)[C@H](O)[C@@H]1N(C)CCCCCCN unitslabel=µg/mL censoringsign=> experimentalvalue=80
